Just for reference, patent US20140005163A1 is where these values come from.

Quick reference for IC50 among some compounds
# system_name: PI3K alpha (Homo sapiens)
# Construct: p85(iSH2) fusion partner (see partner chain) (N); His tag (C); Tn5 (Trichoplusia ni) or TiniPro insect cells
# Sequence (P42336 with tags, fused parts or gaps limits assumed): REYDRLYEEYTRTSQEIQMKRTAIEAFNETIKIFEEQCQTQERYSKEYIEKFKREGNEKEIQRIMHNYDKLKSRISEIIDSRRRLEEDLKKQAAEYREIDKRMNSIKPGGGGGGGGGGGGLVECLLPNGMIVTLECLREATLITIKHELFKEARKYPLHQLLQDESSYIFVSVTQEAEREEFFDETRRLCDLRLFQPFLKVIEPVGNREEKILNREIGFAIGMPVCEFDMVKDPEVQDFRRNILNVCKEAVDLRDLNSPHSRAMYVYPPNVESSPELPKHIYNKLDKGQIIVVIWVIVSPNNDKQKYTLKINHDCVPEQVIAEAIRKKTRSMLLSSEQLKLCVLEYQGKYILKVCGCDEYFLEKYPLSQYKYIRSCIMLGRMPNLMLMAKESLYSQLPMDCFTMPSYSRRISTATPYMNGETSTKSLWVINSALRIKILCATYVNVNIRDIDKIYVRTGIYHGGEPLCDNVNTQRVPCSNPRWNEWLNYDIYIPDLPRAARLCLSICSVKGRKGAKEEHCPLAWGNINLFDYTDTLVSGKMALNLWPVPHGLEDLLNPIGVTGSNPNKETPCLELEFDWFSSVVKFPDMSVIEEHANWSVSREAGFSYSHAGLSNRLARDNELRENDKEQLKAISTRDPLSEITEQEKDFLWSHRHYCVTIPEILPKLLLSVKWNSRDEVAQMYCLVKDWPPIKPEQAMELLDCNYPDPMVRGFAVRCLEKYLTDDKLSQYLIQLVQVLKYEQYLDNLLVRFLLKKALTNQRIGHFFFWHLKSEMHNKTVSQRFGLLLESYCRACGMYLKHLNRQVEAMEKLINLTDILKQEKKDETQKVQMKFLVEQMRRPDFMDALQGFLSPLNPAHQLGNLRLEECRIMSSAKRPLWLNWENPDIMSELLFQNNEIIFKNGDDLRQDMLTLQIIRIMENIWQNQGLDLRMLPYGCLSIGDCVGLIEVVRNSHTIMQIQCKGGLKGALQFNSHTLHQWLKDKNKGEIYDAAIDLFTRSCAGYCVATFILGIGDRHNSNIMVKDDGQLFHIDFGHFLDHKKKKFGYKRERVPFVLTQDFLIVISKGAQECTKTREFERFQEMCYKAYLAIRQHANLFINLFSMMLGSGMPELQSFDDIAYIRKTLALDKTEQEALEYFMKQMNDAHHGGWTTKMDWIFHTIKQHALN
# test_method_notes: PI3K alpha kinase assay (Kinase-Glo luminescence)
reported_metric: IC50 (nM)

[
  {
    "compound": "Cc1ncc(-c2ccc3ncc4c(c3c2)n(-c2cn(C)nc2C)c(=O)n4C)cc1O [Example 185.1]",
    "reported_metric": "IC50",
    "obs_value": 5
  },
  {
    "compound": "CCOc1ncc(-c2ccc3ncc4c(c3c2)n(-c2cn(C)nc2C)c(=O)n4C)cc1NC(C)=O [Example 65]",
    "reported_metric": "IC50",
    "obs_value": 460
  },
  {
    "compound": "Cc1nn(C)c(C)c1-n1c(=O)n(C)c2cnc3ccc(-c4cccc(O)c4)cc3c21 [Example 32.2]",
    "reported_metric": "IC50",
    "obs_value": 30
  },
  {
    "compound": "Cc1nn(C)cc1-n1c(=O)n(C)c2cnc3ccc(-c4cncc(C(C)(C)CO)c4)cc3c21 [Example 229]",
    "reported_metric": "IC50",
    "obs_value": 8
  },
  {
    "compound": "CCOc1ccc(-c2ccc3ncc4c(c3c2)n(-c2c(C)nn(CC(=O)N(C)C)c2C)c(=O)n4C)cn1 [Example 3.12]",
    "reported_metric": "IC50",
    "obs_value": 57
  },
  {
    "compound": "CCn1cc(-n2c(=O)n(C)c3cnc4ccc(-c5cnc(NC)c(COC)c5)cc4c32)c(C)n1 [Example 248.2]",
    "reported_metric": "IC50",
    "obs_value": 8
  },
  {
    "compound": "CCn1cc(-n2c(=O)n(C)c3cnc4ccc(-c5cnc(N)c(COC)c5)cc4c32)c(C)n1 [Example 168.2]",
    "reported_metric": "IC50",
    "obs_value": 23
  },
  {
    "compound": "CCn1cc(-n2c(=O)n(C)c3cnc4ccc(-c5cnc(N)c(Cl)c5)cc4c32)c(C)n1 [Example 148.3]",
    "reported_metric": "IC50",
    "obs_value": 7
  }
]
